- Target or system: rEAAT3 (Rattus norvegicus, UniProt P51907)
- Sequence (P51907 whole entry): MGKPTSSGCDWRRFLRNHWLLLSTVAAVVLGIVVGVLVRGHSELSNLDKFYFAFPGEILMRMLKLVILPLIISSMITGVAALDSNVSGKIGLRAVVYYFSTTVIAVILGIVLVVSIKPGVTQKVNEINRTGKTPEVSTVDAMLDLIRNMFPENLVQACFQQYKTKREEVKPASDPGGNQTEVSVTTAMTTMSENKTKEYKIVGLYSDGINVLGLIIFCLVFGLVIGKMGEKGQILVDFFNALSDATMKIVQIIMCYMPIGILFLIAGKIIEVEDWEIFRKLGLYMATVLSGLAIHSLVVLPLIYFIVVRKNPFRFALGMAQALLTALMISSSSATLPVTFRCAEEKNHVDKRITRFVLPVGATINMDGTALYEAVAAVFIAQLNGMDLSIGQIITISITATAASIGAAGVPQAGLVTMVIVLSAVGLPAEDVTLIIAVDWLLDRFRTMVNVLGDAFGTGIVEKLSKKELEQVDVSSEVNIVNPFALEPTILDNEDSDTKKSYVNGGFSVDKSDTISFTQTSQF
- Measurement notes: Electrophysiology: SLC1 specificity, anion current in transfected HEK293 cells
- Condition notes: 0 mV, 10 mM glutamate and 130 mM NaSCN internal, No current = no outward current up to highest concentration tested (§ 20-50, || 100-400, # 1500-2500 µM), read-out: Binding affinity Ki
Entries annotated with measured pKi
// pKi is dimensionless: -log10 of concentration (M)

Illustrative cases are given below, each with its answer.
N[C@@H](COC(=O)c1ccccc1)C(=O)O [ERA-25]; 3.18
Cc1ccccc1-c1ccc(C(=O)O[C@@H]2CN[C@H](C(=O)O)C2)cc1 [ERA-6]; 5.70
N[C@@H](COC(=O)c1ccc(NC(=O)c2ccccc2)cc1)C(=O)O [ERA-21]; 4.91
O=C(O[C@@H]1CN[C@H](C(=O)O)C1)c1ccc(-c2ccc(F)cc2)cc1 [ERA-4]; 6.16
O=C(O[C@@H]1CN[C@H](C(=O)O)C1)c1ccc(-c2ccc(C(F)(F)F)cc2)cc1 [ERA-5]; 5.90

So what does the record say about pKi for O=C(O[C@@H]1CN[C@H](C(=O)O)C1)c1ccc(Oc2ccccc2)cc1 [ERA-16] ?
4.99
